Assay: Lactate dehydrogenase (LDH) release assay
Assay type: cell-based
Settings: LDH: Cytotoxicity assay EC50
pEC50: −log10 of the molar value. Positions of bridges follow the written chain, without caps; N, C: chain ends. Non-standard residues stand in square brackets, D forms with d. Residues, ends and D or L forms follow the SMILES beside them. R8 = C=CCCCCCC[C@@](C)(N)C(=O)O; Cba = N[C@@H](CC1CCC1)C(=O)O; S5 = C=CCCC[C@](C)(N)C(=O)O
endpointName: pEC50

INSERT INTO assay_data (compound, assayresult) VALUES
  ('CC(=O)N[C@@H](CCCCN)C(=O)N[C@@H](CCCCN)C(=O)N[C@H](C(=O)N[C@@H](CO)C(=O)N[C@@H](Cc1ccccc1)C(=O)N[C@]1(C)CCCCCCC=CCCC[C@@](C)(C(N)=O)NC(=O)[C@H](CC2CCC2)NC(=O)[C@H](CC(C)C)NC(=O)[C@H](C)NC(=O)[C@H](Cc2c[nH]c3ccccc23)NC(=O)[C@H](Cc2ccc(O)cc2)NC(=O)[C@H](CCC(=O)O)NC1=O)[C@@H](C)O [MP-087] (Ac-KKTSF[R8]EYWAL[Cba][S5]-NH2; staple 6-13)', 4.45);

====

Test system: HCT116 cells
Assay: Lactate dehydrogenase (LDH) release assay
Assay type: cell-based
Positions of bridges follow the written chain, without caps; N, C: chain ends. Non-standard residues stand in square brackets, D forms with d. Residues, ends and D or L forms follow the SMILES beside them. Lys(N3) = [N-]=[N+]=NCCCC[C@H](N)C(=O)O; R8 = C=CCCCCCC[C@@](C)(N)C(=O)O; Cba = N[C@@H](CC1CCC1)C(=O)O; S5 = C=CCCC[C@](C)(N)C(=O)O; βAla = NCCC(=O)O
Reported LDH: Cytotoxicity assay: % Effect values for a set of molecules
endpointName: LDH: Cytotoxicity assay: % Effect (%)

INSERT INTO assay_data (molecule, measuredon, endpointname, unitssymbol, assayresult) VALUES
  ('CC(=O)N[C@@H](CCCCN=[N+]=[N-])C(=O)NCCC(=O)N[C@@H](CC(C)C)C(=O)N[C@H](C(=O)N[C@@H](Cc1ccccc1)C(=O)N[C@]1(C)CCCCCCC=CCCC[C@@](C)(C(=O)N[C@@H](CO)C(=O)N[C@@H](C)C(=O)N[C@@H](C)C(N)=O)NC(=O)[C@H](CCC(N)=O)NC(=O)[C@H](Cc2ccc(O)cc2)NC(=O)[C@H](Cc2c[nH]c3ccccc23)NC(=O)[C@H](CC2CCC2)NC(=O)[C@H](CCC(=O)O)NC(=O)[C@H](C)NC1=O)[C@@H](C)O [MP-205] (Ac-[Lys(N3)][βAla]LTF[R8]AE[Cba]WYQ[S5]SAA-NH2; staple 6-13)', 'HCT116 cells', 'LDH: Cytotoxicity assay: % Effect', '%', -2.394),
  ('CC(=O)N[C@@H](CCCCN=[N+]=[N-])C(=O)NCCC(=O)N[C@@H](CC(N)=O)C(=O)N[C@H](C(=O)N[C@@H](Cc1ccccc1)C(=O)N[C@]1(C)CCCCCCC=CCCC[C@@](C)(C(=O)N[C@@H](CO)C(=O)N[C@@H](C)C(=O)N[C@@H](C)C(N)=O)NC(=O)[C@H](CC2CCC2)NC(=O)[C@H](CCC(N)=O)NC(=O)[C@H](CC(N)=O)NC(=O)[C@H](Cc2c[nH]c3ccccc23)NC(=O)[C@H](Cc2ccc(O)cc2)NC(=O)[C@H](CC(N)=O)NC1=O)[C@@H](C)O [MP-497]', 'HCT116 cells', 'LDH: Cytotoxicity assay: % Effect', '%', 3.16);

====

Reported LDH: Cytotoxicity assay % Effect values for a set of compounds
Test system: HCT116 cells
Test: Lactate dehydrogenase (LDH) release assay
Format: cell-based
Positions of bridges follow the written chain, without caps; N, C: chain ends. Non-standard residues stand in square brackets, D forms with d. Residues, ends and D or L forms follow the SMILES beside them. R8 = C=CCCCCCC[C@@](C)(N)C(=O)O; Cba = N[C@@H](CC1CCC1)C(=O)O; S5 = C=CCCC[C@](C)(N)C(=O)O
endpointName: LDH: Cytotoxicity assay % Effect (%)

INSERT INTO measurements (compound, assayresult) VALUES
  ('CC(=O)N[C@H](C(=O)N[C@@H](CO)C(=O)N[C@@H](Cc1ccccc1)C(=O)N[C@]1(C)CCCCCCC=CCCC[C@@](C)(C(=O)O)NC(=O)[C@H](CC(C)C)NC(=O)[C@H](CC(C)C)NC(=O)[C@H](C)NC(=O)[C@H](Cc2c[nH]c3ccccc23)NC(=O)[C@H](Cc2ccc(O)cc2)NC(=O)[C@H](CCC(=O)O)NC1=O)[C@@H](C)O', 20.08),
  ('CC(=O)N[C@H](C(=O)N[C@@H](CO)C(=O)N[C@@H](Cc1ccccc1)C(=O)N[C@]1(C)CCCCCCC=CCCC[C@@](C)(C(=O)N[C@@H](CCC(=O)O)C(N)=O)NC(=O)[C@H](CC2CCC2)NC(=O)[C@H](CC(C)C)NC(=O)[C@H](C)NC(=O)[C@H](Cc2c[nH]c3ccccc23)NC(=O)[C@H](Cc2ccc(O)cc2)NC(=O)[C@H](CCC(=O)O)NC1=O)[C@@H](C)O [MP-140] (Ac-TSF[R8]EYWAL[Cba][S5]E-NH2; staple 4-11)', 11.41),
  ('CC(=O)N[C@H](C(=O)N[C@@H](CO)C(=O)N[C@@H](Cc1ccccc1)C(=O)N[C@]1(C)CCCCCCC=CCCC[C@@](C)(C(N)=O)NC(=O)[C@H](CC(C)C)NC(=O)[C@H](CCCNC(=N)N)NC(=O)[C@H](Cc2ccc(O)cc2)NC(=O)[C@H](Cc2c[nH]c3ccccc23)NC(=O)[C@H](Cc2ccc(O)cc2)NC(=O)[C@H](CCC(=O)O)NC1=O)[C@@H](C)O [MP-033] (Ac-TSF[R8]EYWYRL[S5]-NH2; staple 4-11)', 1.548);

====

Reported EC50 values for a set of molecules
Assay: Lactate dehydrogenase (LDH) release assay
Type: cell-based
Conditions: 0% FBS 4Hr; read-out: LDH: Cytotoxicity assay: EC50
endpointName: EC50

INSERT INTO assay_data (smilestext, assayresult) VALUES
  ('CC(=O)N[C@@H](CCCCN=[N+]=[N-])C(=O)NCCC(=O)N[C@@H](CC(C)C)C(=O)N[C@H](C(=O)N[C@@H](Cc1ccccc1)C(=O)N[C@]1(C)CCCCCCC=CCCC[C@@](C)(C(=O)N2CCC[C@@H]2C(=O)N2CCC[C@@H]2C(=O)N2CCC[C@@H]2C(=O)N2CCC[C@@H]2C(=O)N2CCC[C@@H]2C(=O)N2CCC[C@@H]2C(N)=O)NC(=O)[C@H](CC2CCC2)NC(=O)[C@H](CCC(N)=O)NC(=O)[C@H](C)NC(=O)[C@H](Cc2c[nH]c3ccccc23)NC(=O)[C@H](Cc2ccc(O)cc2)NC(=O)[C@H](CCC(=O)O)NC1=O)[C@@H](C)O', '> 50.7 µM'),
  ('CC(=O)N[C@@H](CCCCN=[N+]=[N-])C(=O)NCCC(=O)N[C@@H](CC(C)C)C(=O)N[C@H](C(=O)N[C@@H](Cc1ccccc1)C(=O)N[C@]1(C)CCCCCCC=CCCC[C@@](C)(C(=O)N[C@@H](CO)C(=O)N[C@@H](C)C(=O)N[C@@H](C)C(N)=O)NC(=O)[C@H](CC2CCC2)NC(=O)[C@H](CCC(N)=O)NC(=O)[C@H](C)NC(=O)[C@H](Cc2c[nH]c3ccccc23)NC(=O)[C@H](Cc2ccc(O)cc2)NC(=O)[C@@H]2CCCN2C1=O)[C@@H](C)O', '> 50.6 µM'),
  ('CC(=O)N[C@@H](CCCCN=[N+]=[N-])C(=O)NCCC(=O)N[C@@H](CC(C)C)C(=O)N[C@H](C(=O)N[C@@H](Cc1ccccc1)C(=O)N[C@]1(C)CCCCC#CC#CCCC[C@@](C)(C(=O)N[C@@H](C)C(=O)N[C@@H](C)C(=O)N[C@@H](C)C(=O)N[C@@H](C)C(=O)N[C@@H](C)C(=O)N[C@H](C)C(N)=O)NC(=O)[C@H](CC2CCC2)NC(=O)[C@H](CCC(N)=O)NC(=O)[C@H](C)NC(=O)[C@H](Cc2c[nH]c3ccccc23)NC(=O)[C@H](Cc2ccc(O)cc2)NC(=O)[C@H](CCC(=O)O)NC1=O)[C@@H](C)O', '> 50.7 µM');

====

Reported cell entry EC50 values for a set of compounds
Assay: in vitro
Conditions: Nanoclick permeability assay EC50
endpointName: cell entry EC50 (µM)

INSERT INTO assay_data (compound, endpointname, unitssymbol, assayresult) VALUES
  ('CC(=O)N[C@@H](CCCCN=[N+]=[N-])C(=O)NCCC(=O)N[C@@H](CC(C)C)C(=O)N[C@H](C(=O)N[C@@H](Cc1ccccc1)C(=O)N[C@]1(C)CCCCC#CC#CCCC[C@@](C)(C(=O)N[C@@H](CO)C(=O)N[C@@H](C)C(=O)N[C@@H](C)C(N)=O)NC(=O)[C@H](CC2CCC2)NC(=O)[C@H](CCC(N)=O)NC(=O)[C@H](C)NC(=O)[C@H](Cc2c[nH]c3ccccc23)NC(=O)[C@H](Cc2ccc(O)cc2)NC(=O)[C@H](CCC(=O)O)NC1=O)[C@@H](C)O [MP-806]', 'cell entry EC50', 'µM', 5.58),
  ('CC(=O)N[C@@H](CCCCN=[N+]=[N-])C(=O)NCCC(=O)N(C)[C@@H](CC(C)C)C(=O)N[C@H](C(=O)N[C@@H](Cc1ccccc1)C(=O)N[C@]1(C)CCCCCCC=CCCC[C@@](C)(C(=O)N[C@@H](CO)C(=O)N[C@@H](C)C(=O)N[C@@H](C)C(N)=O)NC(=O)[C@H](CC2CCC2)NC(=O)[C@H](CCC(N)=O)NC(=O)[C@H](C)NC(=O)[C@H](Cc2c[nH]c3ccccc23)NC(=O)[C@H](Cc2ccc(O)cc2)NC(=O)[C@H](CCC(=O)O)NC1=O)[C@@H](C)O [MP-189]', 'cell entry EC50', 'µM', 0.865);
